# target_or_test_system: hMeCP2 MBD (Homo sapiens, UniProt P51608 90-181)
# Sequence (P51608 90-181): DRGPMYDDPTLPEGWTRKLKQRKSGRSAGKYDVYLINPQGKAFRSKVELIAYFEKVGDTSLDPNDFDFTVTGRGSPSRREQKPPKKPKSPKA
# procedure_summary: EMSA; 20 mM HEPES, 30 mM KCl, 1 mM EDTA, 10 mM (NH4)2SO4, pH 7.3, 1 mM DTT, 0.2% Tween 20, 50 ng/uL poly(dA)-poly(dT) trap, 2 nM duplex, protein in dialysis buffer with BSA; 20 min room temperature; gel at 4 C
# protocol_conditions: protein: recombinant; label: 5' 6-FAM on strand 1
pKd: −log10 of the molar value.
reported_endpoint: pKd

binder="p10 hmC/hmC duplex (dsDNA, 5-hydroxymethylcytosine at C12 of strand 1 and C12 of strand 2 (o3115/o3112)) DNA 1: AAAAAAAAAAACGAAAAAAAAAAA DNA 2: TTTTTTTTTTTCGTTTTTTTTTTT" reported_endpoint=pKd value=6.01
